# System: 3 dpf zebrafish eleuthero-embryos
# Assay Summary: Whole-body fluorescence quantification and 1-compartment PK modelling
# Assay type: in vivo, Danio rerio
# Cond: 1-compartment model, zebrafish eleuthero-embryo
Readout: Q (passive exchange with the medium) (L/h × 10^−9)

INSERT INTO results (compound, target_system, readout, val) VALUES
  ('C#CCNC(=O)c1ccc(-c2c3ccc(=[N+](C)C)cc-3oc3cc(N(C)C)ccc23)c(C(=O)[O-])c1 (single isomer, unassigned) [TAMRA, Tamra alkyne 5-isomer]', '3 dpf zebrafish eleuthero-embryos', 'Q (passive exchange with the medium)', 1.45),
  ('C#CCNC(=O)CCCCCN1/C(=C/C=C/C=C/C2=[N+](C)c3ccc4c(S(=O)(=O)[O-])cc(S(=O)(=O)[O-])cc4c3C2(C)C)C(C)(C)c2c1ccc1c(S(=O)(=O)[O-])cc(S(=O)(=O)[O-])cc21.[K+].[K+].[K+] [S-CY5.5A, Sulfo-cyanine 5.5 alkyne]', '3 dpf zebrafish eleuthero-embryos', 'Q (passive exchange with the medium)', 0.34);

(1) C#CCNC(=O)c1ccc2c(c1)C(=O)OC21c2ccc(O)cc2Oc2cc(O)ccc21 [FAMA, FAM alkyne, 5-isomer]
(2) C#CCNC(=O)CCCCCN1C(=CC=CC2=[N+](C)c3ccccc3C2(C)C)C(C)(C)c2ccccc21.[Cl-] [CY3A, Cyanine3 alkyne]
Larger number for Q (passive exchange with the medium): 1 , or 2 ? State your choice using its label.
2
(2: 8.37 L/h × 10^−9, 1: 1.71 L/h × 10^−9)

---

# Test system: 3 dpf zebrafish eleuthero-embryos
# Assay Summary: Whole-body fluorescence quantification and 1-compartment PK modelling
# Assay type: in vivo, Danio rerio
# Cond: 1-compartment model, zebrafish eleuthero-embryo
Readout: t1/2 (elimination half-life, ln(2)/ke) (h)

INSERT INTO assay_data (compound, unit_string, val) VALUES
  ('C#CCNC(=O)c1ccc(-c2c3ccc(=[N+](C)C)cc-3oc3cc(N(C)C)ccc23)c(C(=O)[O-])c1 (single isomer, unassigned) [TAMRA, Tamra alkyne 5-isomer]', 'h', 13.35);

(1) C#CCNC(=O)CCCCCN1/C(=C/C=C/C=C/C2=[N+](C)c3ccc4c(S(=O)(=O)[O-])cc(S(=O)(=O)[O-])cc4c3C2(C)C)C(C)(C)c2c1ccc1c(S(=O)(=O)[O-])cc(S(=O)(=O)[O-])cc21.[K+].[K+].[K+] [S-CY5.5A, Sulfo-cyanine 5.5 alkyne]
(2) C#CCNC(=O)c1ccc2c(c1)C(=O)OC21c2ccc(O)cc2Oc2cc(O)ccc21 [FAMA, FAM alkyne, 5-isomer]
(3) C#CCNC(=O)CCCCCN1C(=CC=CC2=[N+](C)c3ccccc3C2(C)C)C(C)(C)c2ccccc21.[Cl-] [CY3A, Cyanine3 alkyne]
Ordering: ascending t1/2 (elimination half-life, ln(2)/ke). A complete answer lists every label in the requested sequence.
3, 1, 2
(3: 13.92 h, 1: 30.26 h, 2: 57.41 h)
